Origin of the recorded values: patent US20250197368A1

Reported pKi values follow for various compounds
- Measured target: human α2β3γ2 GABAARs (benzodiazepine site) (Homo sapiens (Human), UniProt P18507+P47869)
- Sequence (P47869 29-451): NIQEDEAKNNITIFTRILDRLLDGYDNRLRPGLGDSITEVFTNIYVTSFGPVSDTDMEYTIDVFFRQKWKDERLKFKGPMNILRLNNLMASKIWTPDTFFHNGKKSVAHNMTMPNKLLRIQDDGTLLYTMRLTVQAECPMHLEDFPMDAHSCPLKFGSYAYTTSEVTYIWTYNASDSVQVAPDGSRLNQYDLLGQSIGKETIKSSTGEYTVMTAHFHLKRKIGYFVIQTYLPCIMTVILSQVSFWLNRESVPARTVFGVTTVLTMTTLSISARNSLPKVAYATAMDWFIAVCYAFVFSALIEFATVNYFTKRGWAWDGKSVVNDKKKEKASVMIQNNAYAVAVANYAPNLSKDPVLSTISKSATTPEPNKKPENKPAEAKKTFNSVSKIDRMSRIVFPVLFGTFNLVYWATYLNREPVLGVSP
- Sequence (P28472 26-473 partner): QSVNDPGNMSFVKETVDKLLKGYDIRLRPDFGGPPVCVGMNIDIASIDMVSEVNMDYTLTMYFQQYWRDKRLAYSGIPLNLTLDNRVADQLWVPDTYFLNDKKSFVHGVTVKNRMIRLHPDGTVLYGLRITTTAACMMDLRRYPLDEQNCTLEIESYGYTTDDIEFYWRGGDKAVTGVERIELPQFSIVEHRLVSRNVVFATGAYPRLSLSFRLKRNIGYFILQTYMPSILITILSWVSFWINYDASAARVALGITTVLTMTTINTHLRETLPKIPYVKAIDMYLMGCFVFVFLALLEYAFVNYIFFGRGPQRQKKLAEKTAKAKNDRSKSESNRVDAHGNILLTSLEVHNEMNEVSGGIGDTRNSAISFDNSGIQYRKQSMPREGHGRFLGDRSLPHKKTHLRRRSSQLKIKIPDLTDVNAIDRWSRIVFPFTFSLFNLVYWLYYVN
- Sequence (P18507 40-475): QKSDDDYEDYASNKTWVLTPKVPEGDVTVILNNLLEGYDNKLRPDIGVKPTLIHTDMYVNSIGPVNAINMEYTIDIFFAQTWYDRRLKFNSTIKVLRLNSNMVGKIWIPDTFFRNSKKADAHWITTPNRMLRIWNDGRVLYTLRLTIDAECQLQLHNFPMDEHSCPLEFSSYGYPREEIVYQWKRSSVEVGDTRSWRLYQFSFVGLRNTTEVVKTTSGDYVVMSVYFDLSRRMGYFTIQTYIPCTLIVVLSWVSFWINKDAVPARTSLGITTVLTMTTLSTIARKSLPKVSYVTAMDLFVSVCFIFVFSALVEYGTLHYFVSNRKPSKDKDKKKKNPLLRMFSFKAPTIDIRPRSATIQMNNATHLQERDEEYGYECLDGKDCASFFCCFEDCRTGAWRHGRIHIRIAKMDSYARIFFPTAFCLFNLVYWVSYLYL
- Assay name: In vitro radioligand binding assay ([3H]Ro15-1788 displacement), α2-GABAAR Ki
Please report pKi as the negative decimal logarithm of the molar concentration, giving only the number.

Previously resolved entries follow.
{"Smiles notation": "CCCNC(=O)c1c(N)c2cccc(-c3cncc(OC(C)C)c3)c2[nH]c1=O", "Recorded number": 7.64}
{"Smiles notation": "CCCNC(=O)c1c(N)c2cccc(-c3cc(OCc4ccccn4)ccc3C)c2[nH]c1=O", "Recorded number": 8.77}
{"Smiles notation": "CCCNC(=O)c1c(N)c2cccc(-c3cc(OCC4CCOCC4)ccc3F)c2[nH]c1=O", "Recorded number": 9.15}
{"Smiles notation": "CCCNC(=O)c1c(N)c2cccc(-c3cncc(OC)n3)c2[nH]c1=O", "Recorded number": 9.64}

Enquiry: pKi of `CCCNC(=O)c1c(N)c2cccc(-c3cc(C)ncc3F)c2[nH]c1=O` on human α2β3γ2 GABAARs (benzodiazepine site) (Homo sapiens (Human), UniProt P18507+P47869)?
Return: 9.17

###

- Measured target: human α3β3γ2 GABAARs (benzodiazepine site) (Homo sapiens (Human), UniProt P18507+P34903)
- Assay name: In vitro radioligand binding assay ([3H]Ro15-1788 displacement), α3-GABAAR Ki
- Experimental parameters: L(tk-) cell membranes, 4 nM [3H]Ro15-1788
Binned Ki; ranges: lo (below 2 nM), med (2 nM to below 6 nM), hi (6 nM or more)

{"Compound": "CCCNC(=O)c1c(N)c2cccc(-c3cc(OCc4ccc(F)cn4)ccc3F)c2[nH]c1=O", "Classification": "lo"}
{"Compound": "CCCNC(=O)c1c(N)c2cccc(-c3cc(OCc4cccc(C#N)n4)ccc3F)c2[nH]c1=O", "Classification": "lo"}
{"Compound": "CCCNC(=O)c1c(N)c2cccc(-c3cnccc3OC)c2[nH]c1=O", "Classification": "hi"}
{"Compound": "CCCNC(=O)c1c(N)c2cccc(-c3nc(CO)ccc3F)c2[nH]c1=O", "Classification": "med"}
{"Compound": "CCCNC(=O)c1c(N)c2cccc(-c3cncc(OC(C)C)c3)c2[nH]c1=O", "Classification": "hi"}

Enquiry: Category lookup for the compound CCCNC(=O)c1c(N)c2cccc(-c3cc(CN4CCC5(CCN(C)C5)C4)ccc3F)c2[nH]c1=O (stereo not drawn)
Return: hi

Enquiry: Category lookup for the compound `CCCNC(=O)c1c(N)c2cccc(-c3ccnn3C)c2[nH]c1=O`
Return: hi

###

- Measured target: human α2β3γ2 GABAARs (benzodiazepine site) (Homo sapiens (Human), UniProt P18507+P47869)
- Assay name: In vitro radioligand binding assay ([3H]Ro15-1788 displacement), α2-GABAAR Ki
Reported pKi values follow for various compounds
Please report pKi as the negative decimal logarithm of the molar concentration, giving only the number.

{"Compound": "CCCNC(=O)c1c(N)c2cccc(-c3cccnc3OC)c2[nH]c1=O", "Measure": "pKi", "Recorded number": 8.67}
{"Compound": "CCCNC(=O)c1c(N)c2cccc(-c3cc(CN4CCN(C)CC4)ccc3F)c2[nH]c1=O", "Measure": "pKi", "Recorded number": 8.52}
{"Compound": "CCCNC(=O)c1c(N)c2cccc(-c3cncc(CO)c3)c2[nH]c1=O", "Measure": "pKi", "Recorded number": 8.47}
{"Compound": "CCCNC(=O)c1c(N)c2cccc(-c3cc(OCc4nc(C)cs4)ccc3F)c2[nH]c1=O", "Measure": "pKi", "Recorded number": 9.30}
{"Compound": "COCCNC(=O)c1c(N)c2cccc(-c3cnccc3OC)c2[nH]c1=O", "Measure": "pKi", "Recorded number": 7.61}
{"Compound": "COc1ccncc1-c1cccc2c(N)c(C(=O)NCC3CC3)c(=O)n(C)c12", "Measure": "pKi", "Recorded number": 8.68}
{"Compound": "COc1ccncc1-c1cccc2c(N)c(C(=O)NCCCF)c(=O)[nH]c12", "Measure": "pKi", "Recorded number": 8.43}
{"Compound": "CCCNC(=O)c1c(N)c2cccc(-c3cc(OCc4ccc(C(F)(F)F)cn4)ccc3F)c2[nH]c1=O", "Measure": "pKi", "Recorded number": 9.21}
{"Compound": "CCCNC(=O)c1c(N)c2cccc(-c3cncc(C)n3)c2[nH]c1=O", "Measure": "pKi", "Recorded number": 8.63}
{"Compound": "CCCNC(=O)c1c(N)c2cccc(-c3cc(OCc4ccc(C#N)cc4OC)ccc3F)c2[nH]c1=O", "Measure": "pKi", "Recorded number": 8.70}

Enquiry: Any idea what pKi was measured for `CCCNC(=O)c1c(N)c2cccc(-c3cc(OC)ccc3F)c2[nH]c1=O` ?
Return: 9.37

Enquiry: Any idea what pKi was measured for `CCCNC(=O)c1c(N)c2cccc(-c3cccc(OC(F)(F)F)n3)c2[nH]c1=O` ?
Return: 9.10

Enquiry: Any idea what pKi was measured for `CCCNC(=O)c1c(N)c2cccc(-c3cc(OCc4cc[nH]n4)ccc3F)c2[nH]c1=O` ?
Return: 9.11

Enquiry: Any idea what pKi was measured for `CCCNC(=O)c1c(N)c2cccc(-c3cc(OCc4c[nH]cn4)ccc3F)c2[nH]c1=O` ?
Return: 9.01

Enquiry: Any idea what pKi was measured for `CCCNC(=O)c1c(N)c2cccc(-c3cccc4c3OC(F)(F)O4)c2[nH]c1=O` ?
Return: 8.77

Enquiry: Any idea what pKi was measured for `CCCNC(=O)c1c(N)c2cccc(-c3cc(OC)ncc3F)c2[nH]c1=O` ?
Return: 9.17

###

- Measured target: human α2β3γ2 GABAARs (benzodiazepine site) (Homo sapiens (Human), UniProt P18507+P47869)
- Assay name: In vitro radioligand binding assay ([3H]Ro15-1788 displacement), α2-GABAAR Ki
pKi: −log10 of the molar value.
Label rule, in plain words: pKi of 9 and up is true (1), under 9 is false (0).

For orientation, consider the following solved cases.
{"Molecule": "CCCNC(=O)c1c(N)c2cccc(-c3cncc(OC)c3C)c2[nH]c1=O [Example 24]", "Measured target": "human α2β3γ2 GABAARs (benzodiazepine site) (Homo sapiens (Human), UniProt P18507+P47869)", "Classification": "false (0)"}
{"Molecule": "CCCNC(=O)c1c(N)c2cccc(-c3cncc(OCC)c3)c2[nH]c1=O [Example 26]", "Measured target": "human α2β3γ2 GABAARs (benzodiazepine site) (Homo sapiens (Human), UniProt P18507+P47869)", "Classification": "false (0)"}
{"Molecule": "CCCNC(=O)c1c(N)c2cccc(-c3cc(OCc4cncnc4)ccc3F)c2[nH]c1=O [Example 107]", "Measured target": "human α2β3γ2 GABAARs (benzodiazepine site) (Homo sapiens (Human), UniProt P18507+P47869)", "Classification": "true (1)"}

Now look at this entry.
Enquiry: State whether the measured pKi reaches 9, counting equality as reaching it, for CCCNC(=O)c1c(N)c2cccc(-c3cc(OCc4cccnn4)ccc3F)c2[nH]c1=O [Example 105]
Return: true (1)

###

- Measured target: human α2β3γ2 GABAARs (benzodiazepine site) (Homo sapiens (Human), UniProt P18507+P47869)
- Assay name: In vitro radioligand binding assay ([3H]Ro15-1788 displacement), α2-GABAAR Ki
Ki vs 2 nM: less than gives true; not less than gives false.

For orientation, consider the following solved cases.
{"Smiles notation": "COc1ccncc1-c1cccc2c(N)c(C(=O)NCC(C)C)c(=O)[nH]c12", "Classification": "false"}
{"Smiles notation": "CCCNC(=O)c1c(N)c2cccc(-c3cc(OCc4ccc(F)cn4)ccc3F)c2[nH]c1=O", "Classification": "true"}
{"Smiles notation": "CCCNC(=O)c1c(N)c2cccc(-c3cc(OCc4cccnc4)ccc3F)c2[nH]c1=O", "Classification": "true"}
{"Smiles notation": "CCCNC(=O)c1c(N)c2cccc(-c3nc(CO)ccc3F)c2[nH]c1=O", "Classification": "false"}
{"Smiles notation": "CCCNC(=O)c1c(N)c2ccnc(-c3cnccc3OC)c2[nH]c1=O", "Classification": "false"}

Enquiry: Does the reported Ki of `CCCNC(=O)c1c(N)c2cccc(-c3cc(OCC)ncc3F)c2[nH]c1=O` stay below 2 nM?
Return: false

Enquiry: Does the reported Ki of `CCCNC(=O)c1c(N)c2cccc(-c3nc(C)ncc3C#N)c2[nH]c1=O` stay below 2 nM?
Return: false

Enquiry: Does the reported Ki of `CCCNC(=O)c1c(N)c2cccc(-c3nc(C(F)(F)F)ccc3C)c2[nH]c1=O` stay below 2 nM?
Return: false

###

- Measured target: human α3β3γ2 GABAARs (benzodiazepine site) (Homo sapiens (Human), UniProt P18507+P34903)
- Assay name: In vitro radioligand binding assay ([3H]Ro15-1788 displacement), α3-GABAAR Ki
- Experimental parameters: L(tk-) cell membranes, 4 nM [3H]Ro15-1788
- Description: The affinity (Ki) of compounds for the benzodiazepine site of human recombinant GABAARs was measured by their ability to inhibit the binding of the selective benzodiazepine antagonist [^3H]Ro15-1788 ([^3H] flumazenil). […] The % inhibition of [^3H]Ro15-1788 binding was plotted as a function of compound concentration and the IC50 calculated. From the IC50, the affinity (Ki) was calculated using the method of Cheng and Prusoff using the Kd values obtained for [^3H]Ro15-1788.
Measure: pKi
Please report pKi as the negative decimal logarithm of the molar concentration, giving only the number.

Previously resolved entries follow.
{"Smiles notation": "CCCNC(=O)c1c(N)c2cccc(-c3cc(OCc4c[nH]cn4)ccc3F)c2[nH]c1=O", "pKi": 8.81}
{"Smiles notation": "CCCNC(=O)c1c(N)c2cccc(-c3cncc(OC)c3)c2[nH]c1=O", "pKi": 8.14}

Enquiry: Any idea what pKi was measured for `CCCNC(=O)c1c(N)c2cccc(-c3cc(OCc4cocn4)ccc3F)c2[nH]c1=O` ?
Return: 9.21
